Experiment: Karl Fisher moisture determination
Assay type: physicochemical
Conditions: Karl Fisher potentiometric titration; powder in formamide; 0.6 % RSD
ASSAY ENDPOINT: Moisture content (%)
Kindly provide the numeric value in % only, without the unit symbol.

Query string: Which value of Moisture content has been reported for CN(Cc1cnc2nc(N)nc(N)c2n1)c1ccc(C(=O)N[C@@H](CCC(=O)O)C(=O)O)cc1 [methotrexate] in the records?
Result string: 7.1
